Provenance of the data: paper PMC9482650

SYSTEM: NOS1, P29475
Sequence (P29475 9-101): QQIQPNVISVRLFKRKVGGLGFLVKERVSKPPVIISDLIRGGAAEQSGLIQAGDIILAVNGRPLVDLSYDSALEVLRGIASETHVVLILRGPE
PROTOCOL SUMMARY: holdup assay
Design: key: below the threshold = too weak to quantify, mostly under pKd 3.1 to 4
DETAILS: plain residues with an end cap or a label only (N-terminal biotin on a linker: ado-ado)
READOUT: pKd
Kindly provide the number alone.

The examples below pair each entry with its known result.
{"columns": ["BINDER", "RESULT VALUE"],
 "data": [
  ["QGPVETESVV [SLC45A4, Q5BKX6]", 3.85],
  ["RHGSCVETSL [TMEM151B, Q8IW70]", 3.84],
  ["AKPSRISTVV [IQSEC2, Q5JU85]", 3.65],
  ["EKKTLIGIKL [GOT1L1, Q8NHS2]", 3.56],
  ["LPAHHNATRL [SLC34A1, Q06495;Q06495-1]", 4.09],
  ["GQEEQVTTRL [TRPC5, Q9UL62]", 3.57],
  ["ETQVTAETVI [TMEM225B, P0DP42]", 3.53]
]}

Let us move to another entry and its pKd.
Exam item: Fill in: pKd of LPHPHSTTRV [NLGN2, Q8NFZ4] is ___
Marked response: 3.63
